# System: MS2 coat protein
# measurement description: apparent Kd, MS2 coat protein; higher = weaker binding; RNA-MaP array; FMN 200 µM where present
# measurement conditions: designed as: OFF switch for flavin mononucleotide; no ligand
result type: apparent Kd (nM)
Please state the figure in nM; there is no need to write the unit.

// solved cases for apparent Kd follow
>>> assay_result("CGAGUGUAAGGAUAUUCGGCGCCAGGGAACAACCUAGCGUAGAAGAAGGUACAUGAGGAUCACCCAUGUGGUUA")
269
>>> assay_result("GCAUCCAAAGUGAGGAUAUACCUCUGGAUACAGAGGUAGAAGGCACAUGAGGAUCACCCAUGUUACUAGGAUGC")
12.9
>>> assay_result("GUUAGCGCAGGAUAUACAUGAGGAUCACCCAUGUCCUCAUGCGUUAAAGAGGUGAUCCGUAGAAGGGUGUAAAC")
180

Now take the following sequence into account.
What the record says about CCGCAAAAGGAGGAUAUCGUAUCGGAUACGAUACGAGAAGGCUUUACAUGAGGAUCACCCAUGUGUCCUAGCGG : apparent Kd is 13.7
